Target: VchβCA (Vibrio cholerae)
Sequence (A0A086SLX8 entry or part of it): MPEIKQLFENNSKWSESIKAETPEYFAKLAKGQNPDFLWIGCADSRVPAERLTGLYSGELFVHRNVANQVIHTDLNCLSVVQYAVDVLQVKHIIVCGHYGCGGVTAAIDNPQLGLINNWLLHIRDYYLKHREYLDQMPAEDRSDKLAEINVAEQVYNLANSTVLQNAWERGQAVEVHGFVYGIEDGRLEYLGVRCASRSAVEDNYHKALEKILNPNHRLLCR
pKi: −log10 of the molar value.

[
  {
    "Compound": "NS(=O)(=O)c1ccc(N2CCN(c3ccc(I)cc3)C2=O)cc1 [4c]",
    "System tested": "VchβCA (Vibrio cholerae)",
    "pKi": 3.94
  },
  {
    "Compound": "NS(=O)(=O)c1cccc(NC(=O)CNc2ccccc2)c1 [11b]",
    "System tested": "VchβCA (Vibrio cholerae)",
    "pKi": 3.88
  },
  {
    "Compound": "CC(C)NCCNc1ccc(S(N)(=O)=O)cc1 [10a]",
    "System tested": "VchβCA (Vibrio cholerae)",
    "pKi": 4.90
  },
  {
    "Compound": "NS(=O)(=O)c1ccc(NC(=O)CNc2ccc(I)cc2)cc1 [4b]",
    "System tested": "VchβCA (Vibrio cholerae)",
    "pKi": 3.80
  },
  {
    "Compound": "Cc1cccc(NCC(=O)Nc2ccc(S(N)(=O)=O)cc2)n1 [7b]",
    "System tested": "VchβCA (Vibrio cholerae)",
    "pKi": 4.14
  },
  {
    "Compound": "CCCCN1CCN(c2ccc(S(N)(=O)=O)cc2)C1=O [9c]",
    "System tested": "VchβCA (Vibrio cholerae)",
    "pKi": 3.95
  },
  {
    "Compound": "NS(=O)(=O)c1ccc(NCCNCc2ccccc2)cc1 [8a]",
    "System tested": "VchβCA (Vibrio cholerae)",
    "pKi": 4.91
  },
  {
    "Compound": "Cc1ccc(NCC(=O)Nc2cccc(S(N)(=O)=O)c2)cc1 [12b]",
    "System tested": "VchβCA (Vibrio cholerae)",
    "pKi": 3.92
  },
  {
    "Compound": "NS(=O)(=O)c1ccc(NCCNc2ccc(Cl)cc2)cc1 [3a]",
    "System tested": "VchβCA (Vibrio cholerae)",
    "pKi": 4.27
  },
  {
    "Compound": "CCCCNCCNc1ccc(S(N)(=O)=O)cc1 [9a]",
    "System tested": "VchβCA (Vibrio cholerae)",
    "pKi": 3.94
  },
  {
    "Compound": "NS(=O)(=O)c1cccc(NCCNc2ccc(Cl)cc2)c1 [13a]",
    "System tested": "VchβCA (Vibrio cholerae)",
    "pKi": 4.23
  },
  {
    "Compound": "CCCCNCCNc1cccc(S(N)(=O)=O)c1 [15a]",
    "System tested": "VchβCA (Vibrio cholerae)",
    "pKi": 4.25
  },
  {
    "Compound": "CCCCNCC(=O)Nc1cccc(S(N)(=O)=O)c1 [15b]",
    "System tested": "VchβCA (Vibrio cholerae)",
    "pKi": 3.93
  },
  {
    "Compound": "NS(=O)(=O)c1ccc(NC(=O)CNc2ccccc2)cc1 [1b]",
    "System tested": "VchβCA (Vibrio cholerae)",
    "pKi": 4.75
  },
  {
    "Compound": "NS(=O)(=O)c1ccc(N2CCN(c3ccc(Cl)cc3)C2=O)cc1 [3c]",
    "System tested": "VchβCA (Vibrio cholerae)",
    "pKi": 3.97
  }
]
